Where do the numbers come from? From paper PMC4334727.

molecular target: DUSP22 (Homo sapiens)
Sequence (Q9NRW4 whole entry, species assumed): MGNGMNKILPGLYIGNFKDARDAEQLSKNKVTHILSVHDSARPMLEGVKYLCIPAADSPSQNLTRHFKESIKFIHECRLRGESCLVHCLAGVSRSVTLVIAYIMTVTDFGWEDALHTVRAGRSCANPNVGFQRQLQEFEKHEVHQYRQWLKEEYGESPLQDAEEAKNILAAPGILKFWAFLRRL
assay metric: IC50 (µM)
Answer format: numeric, µM implied, no suffix.

Param readout = IC50; param system = DUSP22 (Homo sapiens); param query = `COc1ccc(-c2nnc(Nc3nc4c(F)cccc4s3)o2)cc1` ; response: value
26

---

target: CD45 (Homo sapiens, UniProt P08575)
Sequence (P08575 26-1306, species assumed): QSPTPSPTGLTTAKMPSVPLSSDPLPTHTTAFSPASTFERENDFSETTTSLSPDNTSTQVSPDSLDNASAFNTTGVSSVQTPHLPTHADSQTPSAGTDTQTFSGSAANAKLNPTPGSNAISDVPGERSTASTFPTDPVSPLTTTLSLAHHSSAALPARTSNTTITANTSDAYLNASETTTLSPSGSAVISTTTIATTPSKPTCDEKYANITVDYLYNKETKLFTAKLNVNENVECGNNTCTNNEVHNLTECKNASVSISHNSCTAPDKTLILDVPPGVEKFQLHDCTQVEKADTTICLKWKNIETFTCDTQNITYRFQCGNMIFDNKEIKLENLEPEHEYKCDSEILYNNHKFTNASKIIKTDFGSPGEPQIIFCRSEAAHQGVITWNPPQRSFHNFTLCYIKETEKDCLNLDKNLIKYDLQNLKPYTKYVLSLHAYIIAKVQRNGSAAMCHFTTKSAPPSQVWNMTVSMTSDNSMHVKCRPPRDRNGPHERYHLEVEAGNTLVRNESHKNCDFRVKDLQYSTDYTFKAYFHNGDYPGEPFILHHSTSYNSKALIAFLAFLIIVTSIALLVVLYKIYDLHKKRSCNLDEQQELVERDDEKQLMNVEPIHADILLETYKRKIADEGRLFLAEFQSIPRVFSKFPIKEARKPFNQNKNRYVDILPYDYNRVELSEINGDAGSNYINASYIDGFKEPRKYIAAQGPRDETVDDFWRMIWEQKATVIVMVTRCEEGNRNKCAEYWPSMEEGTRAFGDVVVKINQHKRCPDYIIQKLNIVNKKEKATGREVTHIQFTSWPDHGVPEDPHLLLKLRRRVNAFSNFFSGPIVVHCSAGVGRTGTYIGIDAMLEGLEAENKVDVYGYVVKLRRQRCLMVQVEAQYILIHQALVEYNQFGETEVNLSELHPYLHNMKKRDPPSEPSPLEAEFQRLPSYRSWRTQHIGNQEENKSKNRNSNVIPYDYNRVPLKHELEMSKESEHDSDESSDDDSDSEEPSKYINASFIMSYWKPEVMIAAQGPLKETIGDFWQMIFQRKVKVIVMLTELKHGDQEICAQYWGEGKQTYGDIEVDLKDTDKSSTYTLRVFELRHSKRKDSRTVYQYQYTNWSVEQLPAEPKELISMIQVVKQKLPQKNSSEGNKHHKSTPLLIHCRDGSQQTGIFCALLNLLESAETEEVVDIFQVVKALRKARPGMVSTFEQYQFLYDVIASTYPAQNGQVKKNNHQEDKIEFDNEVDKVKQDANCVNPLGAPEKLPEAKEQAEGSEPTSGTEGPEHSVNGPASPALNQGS
assay metric: IC50

Endpoint output: IC50 of `COc1ccc(-c2nnc(Nc3nc4c(F)cccc4s3)o2)cc1` . Value?
> 100 µM

---

target: HePTP (Homo sapiens, UniProt P35236)
Sequence (P35236 whole entry, species assumed): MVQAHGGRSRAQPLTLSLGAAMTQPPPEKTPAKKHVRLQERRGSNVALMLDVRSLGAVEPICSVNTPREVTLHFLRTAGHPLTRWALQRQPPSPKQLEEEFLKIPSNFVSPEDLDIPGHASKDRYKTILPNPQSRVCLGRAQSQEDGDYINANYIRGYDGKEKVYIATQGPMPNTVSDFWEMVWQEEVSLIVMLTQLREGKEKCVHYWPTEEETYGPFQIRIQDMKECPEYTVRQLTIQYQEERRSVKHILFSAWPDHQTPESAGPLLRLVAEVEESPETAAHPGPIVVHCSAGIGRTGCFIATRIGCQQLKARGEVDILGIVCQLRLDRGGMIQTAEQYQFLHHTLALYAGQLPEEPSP
assay metric: pIC50
Conceptually, pIC50 converts a concentration in mol/L into minus its log10.

# value lookup — system HePTP (Homo sapiens, UniProt P35236), readout pIC50, item `COc1ccc(-c2nnc(Nc3nc4c(F)cccc4s3)o2)cc1`
4.42

---

target: TCPTP (Homo sapiens)
Sequence (P17706 whole entry, species assumed): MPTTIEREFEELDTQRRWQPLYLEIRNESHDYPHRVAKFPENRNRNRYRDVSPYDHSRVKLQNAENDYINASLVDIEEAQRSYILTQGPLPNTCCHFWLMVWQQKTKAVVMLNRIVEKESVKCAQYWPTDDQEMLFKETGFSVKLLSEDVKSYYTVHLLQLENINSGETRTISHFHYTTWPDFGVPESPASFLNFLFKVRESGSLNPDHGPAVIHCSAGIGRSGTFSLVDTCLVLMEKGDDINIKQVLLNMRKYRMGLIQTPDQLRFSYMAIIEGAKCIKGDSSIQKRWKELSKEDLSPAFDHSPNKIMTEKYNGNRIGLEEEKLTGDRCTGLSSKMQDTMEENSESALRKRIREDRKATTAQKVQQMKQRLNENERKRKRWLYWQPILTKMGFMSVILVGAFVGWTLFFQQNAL
assay metric: IC50

Tell me reported IC50 for `COc1ccc(-c2nnc(Nc3nc4c(F)cccc4s3)o2)cc1` , tested with TCPTP (Homo sapiens).
55 µM

---

molecular target: LAR (Homo sapiens)
Sequence (P10586 30-1907, species assumed): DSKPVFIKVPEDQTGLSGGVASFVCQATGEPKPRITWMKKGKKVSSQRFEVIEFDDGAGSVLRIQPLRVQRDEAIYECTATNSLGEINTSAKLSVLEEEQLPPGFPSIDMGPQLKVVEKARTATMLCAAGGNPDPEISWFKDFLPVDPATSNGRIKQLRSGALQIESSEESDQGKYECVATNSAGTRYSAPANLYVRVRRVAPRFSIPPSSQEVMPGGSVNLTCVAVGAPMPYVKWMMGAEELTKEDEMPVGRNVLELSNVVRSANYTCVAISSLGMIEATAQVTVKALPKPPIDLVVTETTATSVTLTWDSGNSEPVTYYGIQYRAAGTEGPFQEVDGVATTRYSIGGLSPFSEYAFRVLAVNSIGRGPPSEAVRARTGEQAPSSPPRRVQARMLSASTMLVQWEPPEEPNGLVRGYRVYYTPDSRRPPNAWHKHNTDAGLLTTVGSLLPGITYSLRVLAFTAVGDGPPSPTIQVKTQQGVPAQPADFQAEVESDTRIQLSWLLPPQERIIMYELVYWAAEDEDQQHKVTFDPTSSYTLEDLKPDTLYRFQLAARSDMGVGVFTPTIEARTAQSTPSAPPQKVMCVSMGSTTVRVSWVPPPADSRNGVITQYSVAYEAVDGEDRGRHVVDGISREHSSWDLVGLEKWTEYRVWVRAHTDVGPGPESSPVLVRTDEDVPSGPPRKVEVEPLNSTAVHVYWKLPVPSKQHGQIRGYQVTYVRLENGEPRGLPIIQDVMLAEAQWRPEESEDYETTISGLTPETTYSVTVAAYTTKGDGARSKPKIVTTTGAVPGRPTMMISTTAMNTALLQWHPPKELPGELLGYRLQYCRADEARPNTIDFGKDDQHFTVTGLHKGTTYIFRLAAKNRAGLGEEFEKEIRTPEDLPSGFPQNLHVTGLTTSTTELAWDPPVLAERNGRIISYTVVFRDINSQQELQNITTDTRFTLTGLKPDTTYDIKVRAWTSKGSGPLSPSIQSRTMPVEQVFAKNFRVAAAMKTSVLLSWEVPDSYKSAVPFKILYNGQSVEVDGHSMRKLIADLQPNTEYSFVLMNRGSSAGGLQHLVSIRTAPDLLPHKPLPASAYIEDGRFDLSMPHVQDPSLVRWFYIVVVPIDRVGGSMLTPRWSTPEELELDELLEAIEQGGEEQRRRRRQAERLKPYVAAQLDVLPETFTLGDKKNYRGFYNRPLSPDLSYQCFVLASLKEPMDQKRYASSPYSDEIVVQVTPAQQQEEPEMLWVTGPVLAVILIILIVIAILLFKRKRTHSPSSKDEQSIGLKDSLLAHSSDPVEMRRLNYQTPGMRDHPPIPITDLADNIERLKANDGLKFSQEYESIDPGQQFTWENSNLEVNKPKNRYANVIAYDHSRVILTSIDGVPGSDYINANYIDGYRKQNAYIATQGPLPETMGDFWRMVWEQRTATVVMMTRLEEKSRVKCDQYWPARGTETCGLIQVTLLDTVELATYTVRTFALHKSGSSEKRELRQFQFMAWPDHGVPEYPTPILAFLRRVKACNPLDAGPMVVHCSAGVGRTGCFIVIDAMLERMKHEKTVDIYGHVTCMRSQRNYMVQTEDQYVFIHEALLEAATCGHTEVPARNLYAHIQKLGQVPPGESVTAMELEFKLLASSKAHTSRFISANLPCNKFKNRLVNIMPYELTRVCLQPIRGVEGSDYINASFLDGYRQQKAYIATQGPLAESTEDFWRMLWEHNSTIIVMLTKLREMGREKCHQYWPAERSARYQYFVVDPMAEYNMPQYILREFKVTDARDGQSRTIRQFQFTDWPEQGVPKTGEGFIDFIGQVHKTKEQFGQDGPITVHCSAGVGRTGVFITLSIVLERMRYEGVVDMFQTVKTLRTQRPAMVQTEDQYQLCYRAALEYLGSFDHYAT
pIC50: −log10 of the molar value.
assay metric: pIC50

What value of pIC50 on LAR (Homo sapiens) does COc1ccc(-c2nnc(Nc3nc4c(F)cccc4s3)o2)cc1 [MLS-0437605] have?
< 4.00

---

Catalogue of pIC50 values
target: DUSP3 (Homo sapiens); assay: DUSP3 phosphatase inhibition assay; type: biochemical; conditions: DUSP3, HTS hits, text (Supplemental Table S2)
Sequence (P51452 whole entry): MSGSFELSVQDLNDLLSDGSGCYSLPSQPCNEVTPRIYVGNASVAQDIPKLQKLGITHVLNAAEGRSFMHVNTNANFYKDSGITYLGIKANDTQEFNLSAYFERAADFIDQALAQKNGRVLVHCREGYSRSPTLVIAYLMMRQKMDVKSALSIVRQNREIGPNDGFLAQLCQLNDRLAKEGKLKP
Bear in mind: pIC50 is minus log10 of a mol/L concentration; give just that figure.

entry smiles	value reported
COc1cc(C(=S)N2CCCCC2)ccc1O	6.43

// moving on: another record for pIC50
Any idea what its pIC50 is? The molecule is `COc1ccc(-c2nnc(Nc3nc4c(OC)cccc4s3)o2)cc1`
5.57

---

Target: DUSP6 (Homo sapiens, UniProt Q16828)
Sequence (Q16828 1-381): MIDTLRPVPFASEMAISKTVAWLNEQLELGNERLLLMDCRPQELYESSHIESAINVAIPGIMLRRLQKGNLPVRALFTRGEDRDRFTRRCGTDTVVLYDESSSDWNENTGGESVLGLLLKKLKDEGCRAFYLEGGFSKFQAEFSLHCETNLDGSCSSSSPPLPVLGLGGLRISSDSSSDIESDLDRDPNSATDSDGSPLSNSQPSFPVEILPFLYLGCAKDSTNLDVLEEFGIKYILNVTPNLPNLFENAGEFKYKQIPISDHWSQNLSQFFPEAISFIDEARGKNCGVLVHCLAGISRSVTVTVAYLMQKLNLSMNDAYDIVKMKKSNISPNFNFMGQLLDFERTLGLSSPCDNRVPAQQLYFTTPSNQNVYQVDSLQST
assay metric: IC50

What IC50 appears in the records for this molecule with DUSP6 (Homo sapiens, UniProt Q16828)? `COc1ccc(-c2nnc(Nc3nc4c(F)cccc4s3)o2)cc1`
> 100 µM
